- MEASURED_TARGET: T1, SHANK3 PDZ domain (mouse, UniProt Q4ACU6 570-664)
- T1 construct: SHANK3 PDZ domain, mouse, UniProt Q4ACU6, residues 570-664; Expressed from pET151; His-tag removed with AcTEV protease
- T1 sequence (looked up): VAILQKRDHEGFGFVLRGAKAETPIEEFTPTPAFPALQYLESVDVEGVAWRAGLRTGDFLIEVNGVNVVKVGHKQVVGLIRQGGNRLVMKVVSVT
- PROCEDURE_SUMMARY: fluorescence polarisation; dye-labelled peptide against a twofold serial dilution of the protein in PBS (10 mM Na2HPO4, 1.8 mM KH2PO4, pH 7.4, 137 mM NaCl, 2.7 mM KCl), 25°C; one-site total binding fit; triplicate
- ASSAY_CONDITIONS: both partners purified
Where no end group is shown, it is not given here. maleimide‑fluorescein = Maleimide-fluorescein dye, coupled to a cysteine thiol
RESULT_TYPE: pKd
API: returns pKd as number; meaning -log10 of concentration in mol/L.

Using the record for C(maleimide‑fluorescein)YNRTNRSRMPNLNDLKETAL (single non-native N-terminal cysteine for coupling the dye; ends in -ETAL (957-960); also called CDKL5-1 C-terminal tail peptide; CDKL5 isoform 1 C-terminus; source: synthetic peptide (GLBiochem, Shanghai)) [CDKL5-1^941-960 peptide, fluorescein-labelled] , state its measured pKd.
5.07
